# assay_notes: Self-administration study, serum concentrations of Cumyl-PINACA (LC-MS/MS)
# Assay type: in vivo, human
# condition: human, serum; 0.6 mg oral, one volunteer; read-out: time of maximum serum concentration after ingestion
measured_attribute: Tmax (h)
State just the number; it will be interpreted in h.

Task: Hello, please tell me recorded Tmax for this one: `CCCCCn1nc(C(=O)NC(C)(C)c2ccccc2)c2ccccc21`
Output: 6

###

# system_name: CB1 (Homo sapiens, UniProt P21554)
# Construct: purchased DiscoveRx (Fremont, CA, USA)
# Sequence (P21554 whole entry): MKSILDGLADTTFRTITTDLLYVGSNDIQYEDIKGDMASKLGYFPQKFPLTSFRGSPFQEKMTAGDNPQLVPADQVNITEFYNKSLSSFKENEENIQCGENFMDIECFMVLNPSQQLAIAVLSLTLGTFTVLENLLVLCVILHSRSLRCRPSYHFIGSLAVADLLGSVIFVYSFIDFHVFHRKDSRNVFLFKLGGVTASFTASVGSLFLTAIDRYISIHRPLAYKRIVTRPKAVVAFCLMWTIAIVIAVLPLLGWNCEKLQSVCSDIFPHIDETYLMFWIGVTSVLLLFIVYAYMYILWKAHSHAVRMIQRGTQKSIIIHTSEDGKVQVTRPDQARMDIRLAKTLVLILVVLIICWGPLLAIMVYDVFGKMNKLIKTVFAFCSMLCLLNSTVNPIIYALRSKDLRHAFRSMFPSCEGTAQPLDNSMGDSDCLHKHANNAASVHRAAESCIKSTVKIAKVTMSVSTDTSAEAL
# assay_notes: cAMP biosensor assay with CB1 as target (DiscoveRx)
# Assay type: cell-based
# condition: control ligand CP-55,940; read-out: Maximum response (compared to CP-55,940)
measured_attribute: Emax (%)
State just the number; it will be interpreted in %.

Task: Hello, please tell me recorded Emax for this one: `CCCCCn1cc(C(=O)c2cccc3ccccc23)c2ccccc21`
Output: 97.4

Task: Hello, please tell me recorded Emax for this one: COC(=O)C(NC(=O)c1cn(CC2CCCCC2)c2ccccc12)C(C)(C)C (centres unmarked)
Output: 94.6

Task: Hello, please tell me recorded Emax for this one: `CCCCCn1nc(C(=O)NC(C)(C)c2ccccc2)c2ccccc21`
Output: 92.9

Task: Hello, please tell me recorded Emax for this one: CC(C)C(NC(=O)c1nn(Cc2ccc(F)cc2)c2ccccc12)C(N)=O (centres unmarked)
Output: 97.8

Task: Hello, please tell me recorded Emax for this one: CCCCCn1nc(C(=O)NC(C(N)=O)C(C)C)c2ccccc21 (centres unmarked)
Output: 95.3

Task: Hello, please tell me recorded Emax for this one: `O=C(c1cccc2ccccc12)c1cn(CCCCCF)c2ccccc12`
Output: 101

Task: Hello, please tell me recorded Emax for this one: `CCCCCn1c2ccccc2c2cc(C(=O)c3cccc4ccccc34)ccc21`
Output: 71.8

Task: Hello, please tell me recorded Emax for this one: `O=C(c1cccc2ccccc12)c1nn(CCCCCF)c2ccccc12`
Output: 91.9

###

Provide the reported log10(EC50) of each item.
# system_name: CB1 (Homo sapiens, UniProt P21554)
# Construct: purchased DiscoveRx (Fremont, CA, USA)
# assay_notes: cAMP biosensor assay with CB1 as target (DiscoveRx)
# Format: cell-based
Log scale reminder: EC50 in nM, then log10 taken.

Task: Hello, please tell me recorded log10(EC50) for this one: `CCCCCn1nc(C(=O)NC(C)(C)c2ccccc2)c2ccccc21`
Output: -1.22

Task: Hello, please tell me recorded log10(EC50) for this one: CCCCCn1nc(C(=O)NC(C(N)=O)C(C)C)c2ccccc21 (centres unmarked)
Output: 0.24

Task: Hello, please tell me recorded log10(EC50) for this one: `CCCCCn1cc(C(=O)c2cccc3ccccc23)c2ccccc21`
Output: 0.05

Task: Hello, please tell me recorded log10(EC50) for this one: CC(C)C(NC(=O)c1nn(CC2CCCCC2)c2ccccc12)C(N)=O (centres unmarked) [AB-[…]]
Output: -0.55

Task: Hello, please tell me recorded log10(EC50) for this one: `O=C(c1cccc2ccccc12)c1nn(CCCCCF)c2ccccc12`
Output: 0.23

Task: Hello, please tell me recorded log10(EC50) for this one: CC(C)C(NC(=O)c1nn(Cc2ccc(F)cc2)c2ccccc12)C(N)=O (centres unmarked)
Output: -0.05

Task: Hello, please tell me recorded log10(EC50) for this one: `O=C(c1cccc2ccccc12)c1cn(CCCCCF)c2ccccc12`
Output: -0.35

Task: Hello, please tell me recorded log10(EC50) for this one: COC(=O)C(NC(=O)c1cn(CC2CCCCC2)c2ccccc12)C(C)(C)C (centres unmarked)
Output: -0.85
